Measured pIC50 accompanies every entry in the list below.
Target: NaV1.3 (Homo sapiens)
Test: VIPR optical membrane potential assay, NaV1.3 inhibition
Format: cell-based
Set-up: expressed in transfected cells; host or cells: HEK293
Details: activity against NaV 1.3 channel
pIC50: −log10 of the molar value.

Please review the entries below; each comes with its answer.
| STRUCTURE_AS_SMILES | pIC50 |
| --- | --- |
| O=C(COc1ccc(Cl)cc1)N1CCc2ccc(S(=O)(=O)Nc3nccs3)cc2C1 | < 5.30 |
| O=C(Cc1c(Cl)cccc1Cl)N1CCc2cc(S(=O)(=O)Nc3nccs3)ccc21 | > 5.70 |
| O=C(COc1ccc(F)c(Cl)c1)N1CCCc2cc(S(=O)(=O)Nc3nccs3)ccc21 | > 5.70 |

Q. What value of pIC50 has been recorded for this entry: `Cc1ccc(OCC(=O)N2CCc3ccc(S(=O)(=O)Nc4nccs4)cc3C2)c(C)c1`
A. > 5.70

====

Target: NaV1.3 (Homo sapiens, UniProt Q9NY46)
Sequence (Q9NY46 whole entry): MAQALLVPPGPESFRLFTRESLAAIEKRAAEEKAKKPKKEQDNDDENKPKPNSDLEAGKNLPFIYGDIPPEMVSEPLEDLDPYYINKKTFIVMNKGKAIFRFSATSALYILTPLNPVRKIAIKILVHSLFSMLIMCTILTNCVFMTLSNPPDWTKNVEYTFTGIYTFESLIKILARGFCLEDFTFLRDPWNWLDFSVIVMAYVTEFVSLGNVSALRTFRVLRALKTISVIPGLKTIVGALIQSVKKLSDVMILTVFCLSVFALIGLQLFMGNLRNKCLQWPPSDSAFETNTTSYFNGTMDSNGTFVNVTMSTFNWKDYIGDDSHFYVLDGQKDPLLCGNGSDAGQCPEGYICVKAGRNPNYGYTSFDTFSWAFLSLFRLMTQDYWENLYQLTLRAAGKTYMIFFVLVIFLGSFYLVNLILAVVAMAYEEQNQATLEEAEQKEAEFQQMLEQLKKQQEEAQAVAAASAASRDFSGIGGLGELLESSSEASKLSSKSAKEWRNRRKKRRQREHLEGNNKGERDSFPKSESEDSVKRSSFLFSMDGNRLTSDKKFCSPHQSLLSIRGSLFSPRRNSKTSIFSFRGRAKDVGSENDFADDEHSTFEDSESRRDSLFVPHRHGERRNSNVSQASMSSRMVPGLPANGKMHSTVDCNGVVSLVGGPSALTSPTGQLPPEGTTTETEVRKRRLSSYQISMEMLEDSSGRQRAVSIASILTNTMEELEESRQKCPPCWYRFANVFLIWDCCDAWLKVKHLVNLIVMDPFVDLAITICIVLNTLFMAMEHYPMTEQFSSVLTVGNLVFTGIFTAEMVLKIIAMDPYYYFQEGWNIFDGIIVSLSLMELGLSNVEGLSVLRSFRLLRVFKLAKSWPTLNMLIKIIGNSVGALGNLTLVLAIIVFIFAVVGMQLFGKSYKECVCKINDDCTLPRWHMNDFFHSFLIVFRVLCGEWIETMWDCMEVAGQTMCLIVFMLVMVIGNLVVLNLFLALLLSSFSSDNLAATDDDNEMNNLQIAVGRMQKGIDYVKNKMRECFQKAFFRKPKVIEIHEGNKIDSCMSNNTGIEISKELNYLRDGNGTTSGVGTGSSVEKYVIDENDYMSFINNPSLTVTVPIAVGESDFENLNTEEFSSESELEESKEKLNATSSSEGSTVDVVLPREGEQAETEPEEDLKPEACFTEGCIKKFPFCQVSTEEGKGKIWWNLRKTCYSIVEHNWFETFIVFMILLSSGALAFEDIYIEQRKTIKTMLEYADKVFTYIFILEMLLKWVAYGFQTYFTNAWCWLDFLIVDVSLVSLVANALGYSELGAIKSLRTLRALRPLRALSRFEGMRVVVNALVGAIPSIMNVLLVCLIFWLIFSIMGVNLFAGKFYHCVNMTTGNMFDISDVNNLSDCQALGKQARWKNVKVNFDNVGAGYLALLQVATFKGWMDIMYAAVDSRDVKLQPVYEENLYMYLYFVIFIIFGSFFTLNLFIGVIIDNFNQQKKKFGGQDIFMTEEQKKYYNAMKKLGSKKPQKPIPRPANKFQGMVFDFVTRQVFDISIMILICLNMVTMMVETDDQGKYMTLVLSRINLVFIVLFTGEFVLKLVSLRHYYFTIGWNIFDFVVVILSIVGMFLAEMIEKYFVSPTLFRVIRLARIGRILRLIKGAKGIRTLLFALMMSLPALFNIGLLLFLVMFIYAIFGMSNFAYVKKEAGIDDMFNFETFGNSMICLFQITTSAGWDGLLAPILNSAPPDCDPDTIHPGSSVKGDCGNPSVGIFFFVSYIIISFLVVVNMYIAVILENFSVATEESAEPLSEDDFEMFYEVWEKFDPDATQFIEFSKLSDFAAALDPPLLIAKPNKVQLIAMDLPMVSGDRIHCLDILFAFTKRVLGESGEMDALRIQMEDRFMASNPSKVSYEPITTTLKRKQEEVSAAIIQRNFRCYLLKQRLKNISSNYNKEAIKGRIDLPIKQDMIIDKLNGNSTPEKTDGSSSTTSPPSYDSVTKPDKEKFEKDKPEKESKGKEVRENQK
Test: VIPR optical membrane potential assay, NaV1.3 inhibition
Format: cell-based
Set-up: expressed in transfected cells; host or cells: HEK293
Details: activity against NaV 1.3 channel
pIC50: −log10 of the molar value.
ASSAY_READOUT: pIC50

Please review the entries below; each comes with its answer.
| STRUCTURE_AS_SMILES | pIC50 |
| --- | --- |
| O=C(CNC1CCC1)N1CCc2cc(S(=O)(=O)Nc3nccs3)ccc21 | < 5.30 |
| O=C(COc1ccccc1Cl)N1CCc2ccc(S(=O)(=O)Nc3nccs3)cc2C1 | > 5.70 |
| COc1ccccc1CC(=O)N1CCc2cc(S(=O)(=O)Nc3nccs3)ccc21 | 5.30 to 5.70 |
| O=C(COc1ccccc1)N1CCCc2cc(S(=O)(=O)Nc3nccs3)ccc21 | 5.30 to 5.70 |
| O=C(CN1CCc2ccc(F)cc2C1)N1CCc2cc(S(=O)(=O)Nc3nccs3)ccc21 | > 5.70 |

Q. Notebook entry, NaV1.3 (Homo sapiens, UniProt Q9NY46) assay: pIC50 of `O=C(c1ccc(F)cc1)N1Cc2ccc(S(=O)(=O)Nc3nccs3)cc2C1` = ?
A. 5.30 to 5.70

Q. Another molecule to check: `COc1cccc(CC(=O)N2CCc3cc(S(=O)(=O)Nc4ncns4)ccc32)c1`
A. > 5.70

Q. Another molecule to check: `O=C(CCn1ccc2cc(Cl)ccc21)N1CCc2cc(S(=O)(=O)Nc3ncns3)ccc21`
A. > 5.70

Q. Another molecule to check: `O=C(c1ccccc1Cl)n1ccc2cc(S(=O)(=O)Nc3nccs3)ccc21`
A. 5.30 to 5.70

Q. Another molecule to check: `O=C(c1ccccc1F)N1CCc2cc(S(=O)(=O)Nc3ncns3)ccc21`
A. < 5.30

====

Biological target: NaV1.3 (Homo sapiens)
Test: VIPR optical membrane potential assay, NaV1.3 inhibition
Type: cell-based
Design: expressed in transfected cells; host or cells: HEK293
Conditions: activity against NaV 1.3 channel
pIC50: −log10 of the molar value.
ASSAY_READOUT: pIC50

| COMPOUND | TARGET_UNDER_TEST | pIC50 |
| --- | --- | --- |
| O=C(CCCOc1ccc(Cl)cc1Cl)N1CCc2cc(S(=O)(=O)Nc3ncccn3)ccc21 [Compound 156] | NaV1.3 (Homo sapiens) | < 5.30 |

Q. What value of pIC50 has been recorded for this entry: C[C@H](C(=O)N1CCc2cc(S(=O)(=O)Nc3nccs3)ccc21)n1ccc2ccccc21 [Compound 20]
A. > 5.70

Q. Another compound to check: O=C(COc1ccnc2c(C(F)(F)F)cccc12)N1CCc2ccc(S(=O)(=O)Nc3nccs3)cc2C1 [Compound 140]
A. > 5.70

Q. Another compound to check: CC(C(=O)N1Cc2ccc(S(=O)(=O)Nc3ncns3)cc2C1)N1CCCc2cc(Cl)ccc21 (centres unmarked) [Compound 57]
A. > 5.70

Q. Another compound to check: O=C(COc1ccc(Cl)c(Cl)c1)n1ccc2cc(S(=O)(=O)Nc3nccs3)ccc21 [Compound 19]
A. < 5.30

Q. Another compound to check: O=C(CCn1ccc2cc(Cl)ccc21)N1CCc2cc(S(=O)(=O)Nc3nccs3)ccc21 [Compound 209]
A. > 5.70

Q. Another compound to check: C[C@H](C(=O)N1CCc2cc(S(=O)(=O)Nc3nccs3)ccc21)n1ccc2ccccc21 [Compound 87]
A. > 5.70

Q. Another compound to check: O=C(CN1CCc2ccccc2C1)N1CCCc2cc(S(=O)(=O)Nc3nccs3)ccc21 [Compound 15]
A. 5.30 to 5.70
